# reported Bmax; entries follow
# TARGET OR TEST SYSTEM: T1, NLpoly11S
# T1 chain: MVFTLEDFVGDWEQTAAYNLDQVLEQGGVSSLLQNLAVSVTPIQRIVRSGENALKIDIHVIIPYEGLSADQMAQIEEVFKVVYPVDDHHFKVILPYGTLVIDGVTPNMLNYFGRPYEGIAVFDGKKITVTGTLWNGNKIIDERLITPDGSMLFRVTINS
# PROTOCOL NOTES: luminescence complementation titration, one-site specific binding fit
Output: the number by itself.

Example entries and their recorded answers appear below.
VTGYRLFKQIL (modifications not checked) [array2.31] = 115000
VTGYRLFKEAS (modifications not checked) [array2.8] = 3930

Note: attention shifts to another entry.
Inquiry: Dear colleague, I am looking for the recorded Bmax of the following binder: VEGYRLFEKEL (modifications not checked) [array2.102]
Reply text: 962
